- protocol: Particle characteristics of LNPs containing EGFP mRNA and novel ionizable lipids
- Assay type: physicochemical
- assay_context: Table 20; EGFP mRNA LNP 1.6:54.6:32.8:10.9
Final Product Z-avg reference

[
  {
    "compound": "CCCCCCCCCCC(CCCCCCC(=O)OCCC(CCCCCC)CCCCCC)N(CCCCCCCCCC)C(=O)CCCCN1CCCC1 (stereo not shown)",
    "Final Product Z-avg": "79 nm"
  },
  {
    "compound": "CCCCC/C=C\\CCCC(CCC/C=C\\CCCCC)C(CCC/C=C\\CCCCC)OC(=O)CCCCN(C)C (stereo not shown) [Compound 13-B43, reference compound]",
    "Final Product Z-avg": "75 nm"
  },
  {
    "compound": "CCCCCCCCCCC(CCCCCCC(=O)OCCC(CCCCCCC)CCCCCCC)N(CCCCCCCCCC)C(=O)CCCCN1CCCC1 (stereo not shown)",
    "Final Product Z-avg": "85 nm"
  },
  {
    "compound": "CCCCCCCCCCC(CCCCCCC(=O)OCCC(CCCCC)CCCCC)N(CCCCCCCCCC)C(=O)CCCCN1CCCC1 (stereo not shown)",
    "Final Product Z-avg": "83 nm"
  }
]

----------
Parent ionizable lipid remaining in liver, Average reference
- protocol: Lipid clearance from liver over time after human OTC mRNA LNP (LC-MS)
- Type: in vivo
- assay_context: 1 h post-dose; IV 0.5 mg/kg human OTC mRNA LNP, male C57BL/6 mice (n = 4)
experimental_readout: Parent ionizable lipid remaining in liver, Average (nmol/g liver)

[
  {
    "compound": "CCCCCCCCCCN(C(=O)CCCN(C)C)C(CCCCCCCCC)CCCCCCC(F)(F)C(=O)OCCC(CCCCCC)CCCCCC (centres unmarked)",
    "unit_annotation": "nmol/g liver",
    "value": 15.47
  },
  {
    "compound": "CCCCC/C=C\\CCCC(CCC/C=C\\CCCCC)C(CCC/C=C\\CCCCC)OC(=O)CCCCN(C)C (centres unmarked) [Compound 13-B43, reference compound]",
    "unit_annotation": "nmol/g liver",
    "value": 46.37
  },
  {
    "compound": "CCCCCCCCCCC(CCCCCCC(=O)OCC(CCCCCC)CCCCCCCC)N(CCCCCCC(F)(F)C(=O)OCC(CCCCCC)CCCCCCCC)C(=O)CCCN(C)C (centres unmarked)",
    "unit_annotation": "nmol/g liver",
    "value": 98.57
  },
  {
    "compound": "CCCCCCCCCCC(CCCCCCC(=O)OCCC(CCCCC)CCCCC)N(CCCCCCCC(=O)OCCC(CCCCC)CCCCC)C(=O)CCCN(C)C (centres unmarked)",
    "unit_annotation": "nmol/g liver",
    "value": 21.11
  },
  {
    "compound": "CCCCCCCCCCON(C(=O)CCCN(C)C)C(CCCCCCCCCC)CCCCCCC(=O)OCCC(CCCCC)CCCCC (centres unmarked)",
    "unit_annotation": "nmol/g liver",
    "value": 38.91
  }
]

----------
- protocol: Particle characteristics of LNPs containing luciferase mRNA and novel ionizable lipids
- Assay type: physicochemical
- assay_context: Table 7; luciferase mRNA LNP 1.6:54.6:32.8:10.9

[
  {
    "molecule": "CCCCCCCCCCON(C(=O)CCCN(C)C)C(CCCCCCCCC)CCCCCCC(F)C(=O)OCCC(CCCCC)CCCCC (stereo not shown)",
    "Final Product PDI": 0.17
  },
  {
    "molecule": "CCCCCCCCCCC(CCCCCCCC(=O)OCC(CCCCCC)CCCCCCCC)N(CCCCCCCC(=O)OCC(CCCCCC)CCCCCCCC)C(=O)CCCCN(C)C (stereo not shown)",
    "Final Product PDI": 0.05
  },
  {
    "molecule": "CCCCCCCCCCC(CCCCCCC(F)(F)C(=O)OCCC(CCCCC)CCCCC)N(CCCCCCCC(=O)OCCC(CCCCC)CCCCC)C(=O)CCCN(C)C (stereo not shown)",
    "Final Product PDI": 0.05
  },
  {
    "molecule": "CCCCCCCCCCN(C(=O)CCCN(C)C)C(CCCCCCCCC)CCCCCCC(F)(F)C(=O)OCCC(CCCCC)CCCCC (stereo not shown)",
    "Final Product PDI": 0.08
  },
  {
    "molecule": "CCCCCCCCCCN(C(=O)CCCN(C)C)C(CCCCCCCCC)CCCCCCC(F)C(=O)OCCC(CCCCCC)CCCCCC (stereo not shown)",
    "Final Product PDI": 0.07
  },
  {
    "molecule": "CCCCCCCCCCC(CCCCCCCC(=O)OCCC(CCCCC)CCCCC)N(CCCCCCCC(=O)OCCC(CCCCC)CCCCC)C(=O)CCCCN(C)C (stereo not shown)",
    "Final Product PDI": 0.00
  },
  {
    "molecule": "CCCCCCCCCCON(C(=O)CCCCN(C)C)C(CCCCCCCCCC)CCCCCC(=O)OCC(CCCCCC)CCCCCCCC (stereo not shown)",
    "Final Product PDI": 0.07
  }
]
